We begin with a simple list: items and their reported pIC50.
Target: human TLR7 (Homo sapiens (Human), UniProt Q9NYK1)
Sequence (Q9NYK1 27-1049): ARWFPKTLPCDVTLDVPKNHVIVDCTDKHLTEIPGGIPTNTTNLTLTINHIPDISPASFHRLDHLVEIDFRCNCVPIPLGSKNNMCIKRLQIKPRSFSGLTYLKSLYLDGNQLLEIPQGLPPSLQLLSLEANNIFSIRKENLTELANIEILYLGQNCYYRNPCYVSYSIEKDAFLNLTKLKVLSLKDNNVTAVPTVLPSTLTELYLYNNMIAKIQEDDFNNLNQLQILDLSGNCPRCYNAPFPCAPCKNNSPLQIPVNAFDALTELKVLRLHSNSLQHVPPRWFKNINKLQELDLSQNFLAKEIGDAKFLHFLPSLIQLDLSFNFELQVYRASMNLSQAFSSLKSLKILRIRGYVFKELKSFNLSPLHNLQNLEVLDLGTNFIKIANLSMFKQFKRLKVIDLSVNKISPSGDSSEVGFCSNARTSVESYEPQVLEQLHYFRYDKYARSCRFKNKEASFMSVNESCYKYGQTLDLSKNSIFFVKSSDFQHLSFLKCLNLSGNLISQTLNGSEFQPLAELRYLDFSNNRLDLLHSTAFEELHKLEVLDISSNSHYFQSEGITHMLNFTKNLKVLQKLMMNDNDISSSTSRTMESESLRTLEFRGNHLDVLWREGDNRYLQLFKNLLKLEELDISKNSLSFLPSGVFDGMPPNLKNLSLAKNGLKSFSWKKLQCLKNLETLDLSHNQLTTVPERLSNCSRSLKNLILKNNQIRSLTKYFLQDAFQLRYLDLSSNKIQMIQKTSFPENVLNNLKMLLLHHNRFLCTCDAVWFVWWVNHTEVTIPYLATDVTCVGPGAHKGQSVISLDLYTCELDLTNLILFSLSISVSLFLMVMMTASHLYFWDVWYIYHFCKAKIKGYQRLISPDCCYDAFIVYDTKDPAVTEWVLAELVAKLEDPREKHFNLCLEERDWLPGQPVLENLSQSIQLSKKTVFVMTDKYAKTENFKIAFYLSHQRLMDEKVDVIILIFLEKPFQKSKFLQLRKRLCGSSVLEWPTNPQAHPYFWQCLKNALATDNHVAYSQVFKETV
Assay: Test for evaluating the inhibition of the activation of human TLR7 (SEAP reporter, TLR7/NF-κB/SEAPorter HEK293 cell)
Settings: R-848 200 nmol/L, SEAP reporter
Procedure: As human TLR7 expressing cell line, HEK293 cell line was bought from IMGENEX Corporation (TLR7/NF-ηB/SEAPorter™ HEK293 cell), which is human embryonic kidney cell line and stably expresses full-length human TLR7 gene and secreted alkaline phosphatase (SEAP) reporter gene under the transcriptional control of an NE-ηB response element. […] Each compound prepared in the Examples was evaluated by Test 1.
Keep in mind that pIC50 stands for -log10 of concentration in molar terms.

Before answering, review these 2 worked examples.
| compound | pIC50 |
| --- | --- |
| CCOc1nc(N)c2nc(-c3cncc(F)c3)n(Cc3ccc(CN4C[C@@H]5C[C@H]4CN5C4COC4)cc3)c2n1 [Example 129] | 7.15 |
| COc1nc(C)c2nc(-c3cccnc3)n(Cc3ccc(C4CN5CCC4CC5)cc3F)c2n1 (stereo not shown) [Example 303] | 8.15 |

input: Any idea what pIC50 was measured for CCCOc1nc(N)c2nc(-c3cncc(F)c3)n(Cc3ccc(CN(C)C)cc3)c2n1 [Example 162] ?
output: 6.68

input: Any idea what pIC50 was measured for CCOc1nc(N)c2nc(-c3cncc(F)c3)n(Cc3cccc(C#N)c3)c2n1 [Example 237] ?
output: 5.69

* * *

Target: human TLR7 (Homo sapiens (Human))
Test: Test for evaluating the inhibition of the activation of human TLR7 (SEAP reporter, TLR7/NF-κB/SEAPorter HEK293 cell)
Conditions: R-848 200 nmol/L, SEAP reporter
We begin with a simple list: items and their reported IC50.
Reply with just the number (in nM).

| compound | system-under-test | unit-of-measurement | numeric-result |
| --- | --- | --- | --- |
| CCOc1nc(C)c2nc(-c3cncc(F)c3)n(Cc3cnc(C4CN5CCC4CC5)c(F)c3)c2n1 (stereo not shown) [Example 383] | human TLR7 (Homo sapiens (Human)) | nM | 83 |
| CCOc1nc(C)c2nc(-c3cncc(F)c3)n(Cc3ccc(C4CN(C)CCO4)cc3F)c2n1 (stereo not shown) [Example 307] | human TLR7 (Homo sapiens (Human)) | nM | 57 |
| COCCOc1nc(N)c2nc(-c3cncc(F)c3)n(Cc3cccc(CN4CCOCC4)c3)c2n1 [Example 90] | human TLR7 (Homo sapiens (Human)) | nM | 4200 |

Okay, now this compound:
input: Any idea what IC50 was measured for CCOc1nc(C)c2nc(-c3cncc(F)c3)n(Cc3cnn(CC4CN(C)CCO4)c3)c2n1 (stereo not shown) [Example 273] ?
output: 200

* * *

Target: human TLR7 (Homo sapiens (Human))
Test: Test for evaluating the inhibition of the activation of human TLR7 (SEAP reporter, TLR7/NF-κB/SEAPorter HEK293 cell)
Type: cell-based
Conditions: R-848 200 nmol/L, SEAP reporter
We begin with a simple list: items and their reported log10(IC50).
Scale: log10; quantity: IC50; unit before log: nM

Before answering, review these 3 worked examples.
| compound | measure-name | numeric-result |
| --- | --- | --- |
| CN(C)Cc1ccc(Cn2c(-c3cncc(F)c3)nc3c(N)nc(OC4CCOCC4)nc32)cc1 | log10(IC50) | 4.22 |
| CCOc1nc(N)c2nc(-c3cncc(F)c3)n(Cc3ccc(CN4C[C@@H]5C[C@H]4CN5C)cc3)c2n1 | log10(IC50) | 1.30 |
| COc1nc(C)c2nc(-c3cccnc3)n(Cc3ccc(O[C@H]4C[C@H]5CC[C@@H](C4)N5)cc3F)c2n1 | log10(IC50) | 1.20 |

input: Recorded log10(IC50) for CN(C)Cc1ccc(Cn2c(-c3cncc(F)c3)nc3c(N)nc(N4CCC4)nc32)cc1 with human TLR7 (Homo sapiens (Human)), please?
output: 3.76

input: Recorded log10(IC50) for CCOc1nc(N)c2nc(-c3cncc(F)c3)n(Cc3ccc(CN4C[C@@H]5C[C@H]4CO5)cc3)c2n1 with human TLR7 (Homo sapiens (Human)), please?
output: 1.90

input: Recorded log10(IC50) for COc1nc(C)c2nc(-c3cccnc3)n(Cc3ccc(C4CN5CCC4CC5)c(F)c3)c2n1 (stereo not shown) with human TLR7 (Homo sapiens (Human)), please?
output: 2.35

input: Recorded log10(IC50) for CN(C)Cc1ccc(Cn2c(-c3cncc(F)c3)nc3c(N)nc(OCC(F)F)nc32)cc1 with human TLR7 (Homo sapiens (Human)), please?
output: 2.97

input: Recorded log10(IC50) for CCOc1nc(C)c2nc(-c3cncc(F)c3)n(Cc3ccc(O[C@H]4CN5CCC4CC5)nc3)c2n1 with human TLR7 (Homo sapiens (Human)), please?
output: 1.91

input: Recorded log10(IC50) for CCOc1nc(C)c2nc(-c3cncc(F)c3)n(Cc3ccc(C4CCCN4C)cc3)c2n1 (stereo not shown) with human TLR7 (Homo sapiens (Human)), please?
output: 1.91

input: Recorded log10(IC50) for CCOc1nc(N)c2nc(-c3cncc(F)c3)n(Cc3ccccc3F)c2n1 with human TLR7 (Homo sapiens (Human)), please?
output: 2.88

input: Recorded log10(IC50) for CCOc1nc(N)c2nc(-c3cncc(F)c3)n(Cc3ccc(COCCN(C)C)cc3)c2n1 with human TLR7 (Homo sapiens (Human)), please?
output: 2.08

input: Recorded log10(IC50) for COc1nc(C)c2nc(-c3cncc(F)c3)n(Cc3ccc(O[C@H]4CN5CCC4CC5)cc3F)c2n1 with human TLR7 (Homo sapiens (Human)), please?
output: 0.95

input: Recorded log10(IC50) for CCN1CC(COc2ccc(Cn3c(-c4cncc(F)c4)nc4c(C)nc(OC)nc43)c(F)c2)C1 with human TLR7 (Homo sapiens (Human)), please?
output: 1.46

input: Recorded log10(IC50) for COc1nc(C)c2nc(-c3cncc(F)c3)n(Cc3ccc(O[C@@H]4C[C@H]5CC[C@@H](C4)N5C)cc3F)c2n1 with human TLR7 (Homo sapiens (Human)), please?
output: 1.28

input: Recorded log10(IC50) for COc1nc(C)c2nc(-c3cncc(F)c3)n(Cc3ccc(O)cc3F)c2n1 with human TLR7 (Homo sapiens (Human)), please?
output: 2.93

input: Recorded log10(IC50) for CCOc1nc(C)c2nc(-c3cncc(F)c3)n(Cc3cnn(CCCN4CCCC4)c3)c2n1 with human TLR7 (Homo sapiens (Human)), please?
output: 1.93

* * *

Target: human TLR7 (Homo sapiens (Human))
Assay: Test for evaluating the inhibition of the activation of human TLR7 (SEAP reporter, TLR7/NF-κB/SEAPorter HEK293 cell)
Settings: R-848 200 nmol/L, SEAP reporter
We begin with a simple list: items and their reported IC50.
Reply with just the number (in nM).

Before answering, review these 3 worked examples.
| compound | measure-name | numeric-result |
| --- | --- | --- |
| COCC(C)Oc1nc(N)c2nc(-c3cncc(F)c3)n(Cc3ccc(CN(C)C)cc3)c2n1 (stereo not shown) [Example 158] | IC50 | 13700 |
| CCOc1nc(C)c2nc(-c3cncc(F)c3)n(Cc3cnn(CC4CCCN(C)C4)c3)c2n1 (stereo not shown) [Example 276] | IC50 | 24 |
| CCCCOc1nc(N)c2nc(-c3cncc(F)c3)n(Cc3ccc(CN(C)C)cc3)c2n1 [Example 82] | IC50 | 400 |

Okay, now this compound:
input: Any idea what IC50 was measured for CCCCOc1nc(N)c2nc(-c3cncc(COC)c3)n(Cc3ccccc3)c2n1 [Example 19] ?
output: 1400

* * *

Target: human TLR7 (Homo sapiens (Human), UniProt Q9NYK1)
Test: Test for evaluating the inhibition of the activation of human TLR7 (SEAP reporter, TLR7/NF-κB/SEAPorter HEK293 cell)
Assay type: cell-based
Conditions: R-848 200 nmol/L, SEAP reporter
measure-name: pIC50
Keep in mind that pIC50 stands for -log10 of concentration in molar terms.

| compound | pIC50 |
| --- | --- |
| CCOc1nc(C)c2nc(-c3cncc(F)c3)n(Cc3cnn(CC4CCNC4)c3)c2n1 (stereo not shown) [Example 271] | 7.00 |

input: Recorded pIC50 for CCOc1nc(C)c2nc(-c3cncc(F)c3)n(Cc3ccc(CN4[C@@H]5CC[C@H]4CN(C)C5)cc3)c2n1 with human TLR7 (Homo sapiens (Human), UniProt Q9NYK1), please?
output: 7.24

input: Recorded pIC50 for CCOc1nc(N)c2nc(-c3cncc(F)c3)n(Cc3ccc(O[C@H]4CN5CCC4CC5)cc3)c2n1 with human TLR7 (Homo sapiens (Human), UniProt Q9NYK1), please?
output: 7.29

input: Recorded pIC50 for CCOc1nc(C)c2nc(-c3cncc(F)c3)n(Cc3ccc(CN4CC(C#N)C4)cc3)c2n1 with human TLR7 (Homo sapiens (Human), UniProt Q9NYK1), please?
output: 6.80
